Substrate: gfPET
PROCEDURE TEXT: Proxy for plastic degradation [Relative activity]
MEASUREMENT PARAMETERS: pH 8
ENDPOINT LABEL: Proxy for plastic degradation

Worked examples follow.
unnamed (protein) MANPYERGPDPTESSIEAVRGPFAVAQTTVSRLQADGFGGGTIYYPTDTSQGTFGAVAISPGFTAGQESIAWLGPRIASQGFVVITIDTITRLDQPDSRGRQLQAALDHLRTNSVVRNRIDPNRMAVMGHSMGGGGALSAAANNTSLEAAIPLQGWHTRKNWSSVRTPTLVVGAQLDTIAPVSSHSEAFYNSLPSDLDKAYMELRGASHMVSNTPDTTTAKYSIAWLKRFVDDDLRYEQFLCPAPDDFAISEYRSTCPF
74%
unnamed (protein) MANPYERGPDPTESSIEAVRGPFAVAQTTVSRLQADGFGGGTIYYPTDTSQGTFGAVAISPGFTAGQESIAWLGPRIASQGFVVITIDTITRLDQPDSRGRQLQAALDHLRTNSVVRNRIDPNRMAVMGHSMGGGGALSAAANNTSLEAAIPLQGAHTRKNWSSVRTPTLVVGAQLDTIAPVSSHSEAFYNSLPSDLDKAYMELRGASHLVSNTPDTTTAKYSIAWLKRFVDDDLRYEQFLCPAPDDFAISEYRSTCPF
5%

# evaluate next
Provide measured Proxy for plastic degradation value, entry: unnamed (protein) MANPYERGPDPTESSIEAVRGPFAVAQTTVSRLQADGFGGGTIYYPTDTSQGTFGAVAISPGFTAGQESIAWLGPRIASQGFVVITIDTITRLDQPDSRGRQLQAALDHLRTNSVVRNRIDPNRMAVMGHSMGGGGALSAAANNTSLEAAIPLQGWHTRKNWSSVRTPTLVVGAQLDTWAPVSSHSEAFYNSLPSDLDKAYMELRGASHLVSNTPDTTTAKYSIAWLKRFVDDDLRYEQFLCPAPDDFAISEYRSTCPF 23%
